Origin of values: ChEMBL document CHEMBL5724806

# assayDetails: The drug is tested on the gut metagenome community of A-09 with ENA study accession number: PRJEB31790 for biotransformation under microaerobic condition. The drug concentrations were measured over 7 timepoints collected between 0 and 12 hours of incubation by liquid-chromatography-coupled mass spectrometry (LC–MS)
# Assay type: ADME
# Parameters: dose 5 uM, timepoint 0, 0.75, 1.5, 3, 6, 9, 12 hours
# conditionsUsed: 5 µM

# molecule, Bacterial Biotransformation
records = [
    ("COc1ccc([C@@H]2Sc3ccccc3N(CCN(C)C)C(=O)[C@@H]2OC(C)=O)cc1 [DILTIAZEM]", "Compound metabolized"),
    ("CCC(C)(C)C(=O)O[C@H]1C[C@@H](C)C=C2C=C[C@H](C)[C@H](CC[C@@H]3C[C@@H](O)CC(=O)O3)[C@H]21 [SIMVASTATIN]", "Compound NOT metabolized"),
    ("COc1c(C)c2c(c(O)c1C/C=C(\\C)CCC(=O)OCCN1CCOCC1)C(=O)OC2 [MYCOPHENOLATE MOFETIL]", "Compound metabolized"),
    ("C=CC[C@@H]1/C=C(\\C)C[C@H](C)C[C@H](OC)[C@H]2O[C@@](O)(C(=O)C(=O)N3CCCC[C@H]3C(=O)O[C@H](/C(C)=C/[C@@H]3CC[C@@H](O)[C@H](OC)C3)[C@H](C)[C@@H](O)CC1=O)[C@H](C)C[C@@H]2OC.O [TACROLIMUS]", "Compound metabolized"),
    ("COc1c(C)c2c(c(O)c1C/C=C(\\C)CCC(=O)O)C(=O)OC2 [MYCOPHENOLIC ACID]", "Compound NOT metabolized"),
    ("CCOC(=O)[C@H](CCc1ccccc1)N[C@@H](C)C(=O)N1[C@H](C(=O)O)C[C@@H]2CCC[C@@H]21", "Compound NOT metabolized"),
]

* * *

# assayDetails: The drug is tested on Bacteroides uniformis strain: DSM6597 for biotransformation under anaerobic condition. The drug concentrations were measured over 6 timepoints collected between 0 and 12 hours of incubation by liquid-chromatography-coupled mass spectrometry (LC–MS)
# Format: ADME
# Design: dose 5 uM, timepoint 0, 1.5, 3, 6, 9, 12 hours
# conditionsUsed: 5 µM
propertyMeasured: Bacterial Biotransformation

# molecule, assayResult
records = [
    ("C[C@]12CCC(=O)C=C1CC[C@@H]1[C@@H]2[C@@H](O)C[C@@]2(C)[C@H]1CC[C@]2(O)C(=O)CO [HYDROCORTISONE]", "Compound NOT metabolized"),
    ("CCOC(=O)[C@H](CCc1ccccc1)N[C@@H](C)C(=O)N1[C@H](C(=O)O)C[C@@H]2CCC[C@@H]21", "Compound NOT metabolized"),
    ("C[C@H]1C[C@@H]2[C@H]([C@@H](O)C[C@@]3(C)[C@H]2CC[C@]3(O)C(=O)CO)[C@@]2(C)C=CC(=O)C=C12", "Compound NOT metabolized"),
]

* * *

# assayDetails: The drug is tested on the gut metagenome community of A-02 with ENA study accession number: PRJEB31790 for biotransformation under microaerobic condition. The drug concentrations were measured over 7 timepoints collected between 0 and 12 hours of incubation by liquid-chromatography-coupled mass spectrometry (LC–MS)
# Format: ADME
# Design: dose 5 uM, timepoint 0, 0.75, 1.5, 3, 6, 9, 12 hours
# conditionsUsed: 5 µM

# compound, Bacterial Biotransformation
data = [
    ("COc1ccc([C@@H]2Sc3ccccc3N(CCN(C)C)C(=O)[C@@H]2OC(C)=O)cc1 [DILTIAZEM]", "Compound metabolized"),
    ("CN(Cc1cnc2nc(N)nc(N)c2n1)c1ccc(C(=O)N[C@@H](CCC(=O)O)C(=O)O)cc1 [METHOTREXATE]", "Compound metabolized"),
    ("C[C@H]1C[C@H]2[C@@H]3CCC4=CC(=O)C=C[C@]4(C)[C@@]3(F)[C@@H](O)C[C@]2(C)[C@@]1(O)C(=O)CO [BETAMETHASONE]", "Compound metabolized"),
]
